Assay remarks: folding enthalpy; higher = less favourable; fluorescence melt of hairpins on a sequencing array, two-state fit
Setup conditions: sodium 0.088 M
// label = yes (1) if folding enthalpy is not less than -20 kcal/mol, otherwise no (0)

INPUT: Is it the case that GGCGAAGGAAACTTTGCC (((.(((....))).))) has folding enthalpy reaching or exceeding -20 kcal/mol?
OUTPUT: no (0)

INPUT: State whether the measured folding enthalpy reaches -20 kcal/mol, counting equality as reaching it, for ACACTGAAAAGTGT (((((....)))))
OUTPUT: no (0)

INPUT: folding enthalpy >= -20 kcal/mol for GCGTTAGGAAACTAGTGC ((..(((....)))..)) ?
OUTPUT: yes (1)

INPUT: Decide: is the reported value of folding enthalpy for GACGGCCGAAAGGCGTC (((.(((....)))))) equal to or greater than -20 kcal/mol?
OUTPUT: no (0)

INPUT: # check: folding enthalpy of GATCACTTGAGTGATC ((((((....)))))) is greater than or equal to -20 kcal/mol
OUTPUT: no (0)

INPUT: Would you say GAGCAGAAATGCTC (((((....))))) shows folding enthalpy at minimum -20 kcal/mol?
OUTPUT: no (0)

INPUT: Does GTAGGCACGAAAGTGTAC (((..(((....)))))) have a reported folding enthalpy of at least -20 kcal/mol?
OUTPUT: yes (1)

INPUT: Does the reported folding enthalpy for TCTTCGAAAGAAGA (((((....))))) fall at or above the -20 kcal/mol mark?
OUTPUT: yes (1)

INPUT: Hello, I need to know if GACGTAGGAAACTATGTC (((.(((....))).))) has measured folding enthalpy not below -20 kcal/mol. Thanks!
OUTPUT: no (0)

INPUT: Quick check, folding enthalpy >= -20 kcal/mol? GAATATGGAAACGTATTC (((((.(....).)))))
OUTPUT: no (0)

INPUT: Is folding enthalpy for GCACGTGGAAACACATGC (((.(((....))).))) at or above -20 kcal/mol?
OUTPUT: no (0)

INPUT: Assess whether reported folding enthalpy for GATCACAACGTGATC ((((((...)))))) sits at -20 kcal/mol or higher.
OUTPUT: no (0)

INPUT: Identify whether the reported folding enthalpy of the following sequence is -20 kcal/mol or greater: GGGCGGCCGAAAGGCCCC (((..(((....))))))
OUTPUT: yes (1)

INPUT: State whether the measured folding enthalpy reaches -20 kcal/mol, counting equality as reaching it, for GGCGCCACGAAAGTGGCC (((..(((....))))))
OUTPUT: yes (1)

INPUT: # bool: folding enthalpy of GGTCTGGGAAACCAGGCC ((.((((....)))).)) >= -20 kcal/mol
OUTPUT: no (0)

INPUT: Reported folding enthalpy reaches at least -20 kcal/mol for GTGTTGGGAAACTAGCAC (((.(.(....).).))) ?
OUTPUT: yes (1)

INPUT: Check if folding enthalpy >= -20 kcal/mol (inclusive). Item: GCTAGGCGAAAGCCTTGC ((.((((....)))).))
OUTPUT: no (0)

INPUT: I'd appreciate it if you could say whether GGTTATCGAAAGATACC (((.(((....)))))) has folding enthalpy at least equal to -20 kcal/mol.
OUTPUT: no (0)

INPUT: Hi team, for ATGCAGAAATGCAT (((((....))))) , is the recorded folding enthalpy at or above -20 kcal/mol?
OUTPUT: no (0)

INPUT: In plain terms: is recorded folding enthalpy at least -20 kcal/mol for GATCCTGTCTAGGATC ((((((....)))))) ?
OUTPUT: no (0)

INPUT: Does the reported folding enthalpy for GTCACCGAAAGGTGAGAC ((((((....)))..))) fall at or above the -20 kcal/mol mark?
OUTPUT: yes (1)

INPUT: Does folding enthalpy meet or surpass -20 kcal/mol for GATCACACTCGTGATC ((((((....)))))) ?
OUTPUT: no (0)

INPUT: Reported folding enthalpy reaches at least -20 kcal/mol for GACATAGGAAACTACGTC (((.(((....))).))) ?
OUTPUT: yes (1)

INPUT: Given GTTGGTGGAAACACTGAC ((..(((....)))..)) , state whether its folding enthalpy is at least -20 kcal/mol.
OUTPUT: yes (1)

INPUT: Does the sequence GCCCTCGGAAACGAGGAC (.(((((....))))).) have recorded folding enthalpy that is -20 kcal/mol or more?
OUTPUT: yes (1)

INPUT: Please indicate if the recorded folding enthalpy for AGGGAGAAATCCCT (((((....))))) meets or exceeds -20 kcal/mol.
OUTPUT: yes (1)

INPUT: Record GAGACACGAAAGTGACTC (((.(((....))).))) ; criterion: folding enthalpy no lower than -20 kcal/mol. Met?
OUTPUT: no (0)

INPUT: Does folding enthalpy meet or surpass -20 kcal/mol for GGTTTTCGAAAGAACACC (((.(((....))).))) ?
OUTPUT: no (0)

INPUT: Check the entry GATCCGGAAGCGGATC ((((((....)))))) : does folding enthalpy equal or exceed -20 kcal/mol?
OUTPUT: no (0)

INPUT: Given GCCCTGCGAAAGCAGAGC ((.((((....)))).)) , state whether its folding enthalpy is at least -20 kcal/mol.
OUTPUT: yes (1)

INPUT: Please check the record GGGCGTGGAAACGCGTCC ((.((.(....).)).)) and state if its folding enthalpy is at or above -20 kcal/mol.
OUTPUT: yes (1)

INPUT: Answer whether folding enthalpy of GCGTATCCGAAAGGACGC (((..(((....)))))) is greater than or equal to -20 kcal/mol.
OUTPUT: no (0)

INPUT: API: above_or_equal(metric=folding enthalpy, cutoff=-20 kcal/mol) for item GATCCGTCCTCGGATC ((((((....))))))
OUTPUT: no (0)

INPUT: Hello, I need to know if GACGTCGGAAACGGCGTC ((((.((....)).)))) has measured folding enthalpy not below -20 kcal/mol. Thanks!
OUTPUT: no (0)

INPUT: Form field: folding enthalpy at least -20 kcal/mol? Entry: GAACAACGAAAGTTTTC (((.(((....))))))
OUTPUT: yes (1)

INPUT: For this sequence, is measured folding enthalpy -20 kcal/mol or higher? GATCTTGCTAAAGATC ((((((....))))))
OUTPUT: no (0)

INPUT: Is folding enthalpy for GTCTCGGGAAACCAAGAC ((((.((....)).)))) at or above -20 kcal/mol?
OUTPUT: no (0)

INPUT: Quick check, folding enthalpy >= -20 kcal/mol? GCAATCGAAAGATTCTGC ((((((....)))..)))
OUTPUT: yes (1)

INPUT: Check the entry GCTAACGAAAGTTGAGC ((((((....))).))) : does folding enthalpy equal or exceed -20 kcal/mol?
OUTPUT: no (0)

INPUT: Could you please find out whether CGCAGACGGAAACGTGCG (((..(((....)))))) has folding enthalpy that meets -20 kcal/mol or exceeds it?
OUTPUT: no (0)

INPUT: Does the reported folding enthalpy for GGAATACGAAAGTAGTCC (((.(((....))).))) fall at or above the -20 kcal/mol mark?
OUTPUT: no (0)

INPUT: Is the recorded value of folding enthalpy equal to or greater than -20 kcal/mol for this sequence? GTGCTCTCGAAAGAGCAC (((..(((....))))))
OUTPUT: no (0)

INPUT: Entry GATCGTTAGCACGATC ((((((....)))))) : is its folding enthalpy no less than -20 kcal/mol?
OUTPUT: no (0)

INPUT: Does the reported folding enthalpy for GCGGGGCGAAAGCTACGC (((..((....))..))) fall at or above the -20 kcal/mol mark?
OUTPUT: no (0)

INPUT: State whether the measured folding enthalpy reaches -20 kcal/mol, counting equality as reaching it, for GATCCTGGTCAGGATC ((((((....))))))
OUTPUT: no (0)
